Data origin: the OPERA property sets (Mansouri et al. 2018)

Listed here: items and their measured logP.

Field: example entries. Status: answers known.
{"Molecule": "Cc1cccc(C)c1NC(=O)CCCCCN", "Observed Measurement": 1.29}
{"Molecule": "CCC(N)C(=O)Nc1c(C)cccc1C (stereo unspecified)", "Observed Measurement": 0.84}
{"Molecule": "O=C(c1ccc(F)cc1F)c1ccc2n1CCC2C(=O)O (stereo unspecified)", "Observed Measurement": 2.59}
{"Molecule": "O=C1Nc2ccccc2C1c1ccccc1 (stereo unspecified)", "Observed Measurement": 2.59}
{"Molecule": "CCCNCC(O)COc1ccc(-c2ncc(-c3cccs3)[nH]2)cc1 (stereo unspecified)", "Observed Measurement": 2.84}

Lookup: Check the records and state logP for `Cc1ccc(C(=O)c2ccc(CC(=O)O)n2C)cc1`
Found: 2.79

Lookup: Provide measured logP value, entry: O=C(c1ccc2n1CCC2C(=O)O)C1CCC1 (stereo unspecified)
Found: 2.41

###

Response field class: enum, chosen by comparing logP against range A: < 1; range B: ≥ 1 and < 3; range C: ≥ 3

{"Molecule": "CNC(=O)OCc1c2c(n3c1C(OC(C)=O)CC3)C(=O)C=C(N1CCCC1)C2=O (stereo not drawn)", "Assigned Label": "range B"}
{"Molecule": "C=CCC(NC(=O)C(Cc1ccccc1)NS(=O)(=O)N1CCN(C)CC1)C(=O)NC(CC1CCCCC1)C(=O)C(F)(F)C(=O)NCCN1CCOCC1 (stereo not drawn)", "Assigned Label": "range B"}
{"Molecule": "CO[C@@]1(NC(=O)Cc2cccs2)C(=O)N2C(C(=O)O)=C(COC(N)=O)CS[C@@H]21", "Assigned Label": "range A"}
{"Molecule": "CNC(=S)NCCSCc1cncn1C", "Assigned Label": "range A"}
{"Molecule": "CCC1(c2ccccc2)C(=O)N=C(OC(C)C)NC1=O (stereo not drawn)", "Assigned Label": "range B"}
{"Molecule": "CCCOC(=O)CNC(=O)CCCCSc1ncnc2nc[nH]c12", "Assigned Label": "range B"}

Lookup: Lab log: O=C(c1ccc(C(F)(F)F)cc1)c1ccc2n1CCC2C(=O)O (stereo not drawn) — assign logP category
Found: range C

Lookup: Bin? `C=C(C)C(=O)OCC(F)(F)F`
Found: range B

###

The entries below come with measured logP values attached.
// return just the number, without any unit appended

{"Compound": "Nc1nc(-c2ccccn2)cc2ccccc12", "logP": 2.74}
{"Compound": "CC(=O)Nc1ccccc1C(N)=O", "logP": 0.32}
{"Compound": "OC(Cn1ccnc1)(c1ccc(F)cc1)c1cccc(-c2ccncc2)c1 (configuration not stated)", "logP": 2.91}
{"Compound": "CCCCNC(=O)NCCNCC(O)COc1ccc(-c2ncc(C)[nH]2)cc1 (configuration not stated)", "logP": 1.24}
{"Compound": "O=Cc1cccc(Cl)c1", "logP": 2.26}

Lookup: Indicate the recorded logP value for this compound: `CCOP(=O)(Cc1ccc(-c2nc3ccccc3s2)cc1)OCC`
Found: 3.5

Lookup: State its logP: `COC(=O)c1ccc(CN(C)N=O)cc1`
Found: 1.21

Lookup: Answer with the recorded logP of `Clc1ccc(Cl)c(-c2ccccc2)c1` only.
Found: 5.1

Lookup: Report logP for NC1CC1c1ccccc1 (configuration not stated)
Found: 1.58

Lookup: State its logP for this compound: `N=C(N)NN=Cc1ccccc1`
Found: 1.18

Lookup: Quick one: give measured logP for CC1OC(OC2C(O)CC(OC3CCC4(C)C(CCC5C4CCC4(C)C(C6=CC(=O)OC6)CCC54O)C3)OC2C)CC(O)C1O (configuration not stated)
Found: 2.15

Lookup: Quote logP reported for CC1c2nc3ccccc3c(=O)n2CN1CCc1ccccc1 (configuration not stated) please.
Found: 1.8

Lookup: Provide measured logP value, entry: `OCc1cc(Cl)ccc1O`
Found: 1.44

Lookup: Give the reported value of logP for this record: `Cc1cc(Br)cc(C)c1N=C1NCCN1`
Found: 2.8

Lookup: Provide only the value of recorded logP for `NC(=O)c1ccccc1OCc1ccc([N+](=O)[O-])cc1`
Found: 1.73

Lookup: # return recorded logP for entry `C=C(C)C(=O)OCCCOC(=O)C(=C)C`
Found: 1.86

Lookup: Please indicate logP recorded for CC(C)NC(=O)COc1ccc(OCCNCC(O)COc2ccccc2)cc1 (configuration not stated)
Found: 2.4

Lookup: Provide only the value of recorded logP for OC1c2ccccc2C2CCCCC2C1O (configuration not stated)
Found: 2.47

Lookup: Read the entry `CCNC(=O)c1cc(Cl)cc(C)c1O` and write its reported logP.
Found: 3.55

Lookup: Note logP for the compound shown: `CCOC(=O)C=COc1ccccc1`
Found: 3.18

Lookup: Dear colleague, please send me the reported logP for `CCCCCCCCCCOc1ccc(C(=O)O)cc1` when you can.
Found: 6.29

Lookup: Note logP for the compound shown: `Oc1ccc2[nH]ccc2c1`
Found: 1.11

Lookup: Retrieve logP measured for CCCCCCC(C)(C)c1ccc(C2CC(O)CCC2CCCO)c(O)c1 (configuration not stated) and print it.
Found: 6.13

###

The reader will find reported logP values listed item by item below.
Reply briefly: the number, and no unit.

Below, each entry is followed by its recorded logP result.
{"Molecule": "CSc1cnc2ccccc2n1", "Observed Measurement": 2.79}
{"Molecule": "Nc1nnc(CCc2ccccc2)o1", "Observed Measurement": 1.19}
{"Molecule": "O=C(COc1ccc(OCCNCC(O)COc2ccccc2)cc1)N1CCc2ccccc2C1 (stereo unspecified)", "Observed Measurement": 3.6}

Lookup: Indicate the recorded logP value for this molecule: `C[C@@H]1Cc2c(Cl)cc(C(=O)N[C@@H](Cc3ccccc3)C(=O)O)c(O)c2C(=O)O1`
Found: 4.74

Lookup: State, in one line, measured logP of OC(CN1CCCC1)(c1ccc(F)cc1)c1ccc(-c2ccncc2)cc1 (stereo unspecified)
Found: 3.84

Lookup: Respond only with logP recorded for `O=C1CN=C(c2ccccc2)c2cc(Br)ccc2N1`
Found: 3.11

Lookup: Indicate the recorded logP value for this molecule: CNC(=O)OC1OC(=O)C2C3C=CC(C3)C12 (stereo unspecified)
Found: 0.63

Lookup: Give reported logP value for `NS(=O)(=O)c1nc2c(Cl)cc(Cl)cc2s1`
Found: 2.6

Lookup: Give the value of logP reported for the following: CC1OC(OC2CCC3(C)C(CCC4C3CC(O)C3(C)C(C5=CC(=O)OC5)CCC43O)C2)CC(O)C1O (stereo unspecified)
Found: 1.09

Lookup: Respond only with logP recorded for `Oc1ccc(C2(O)CCN(CCCSc3ccc(F)cc3)CC2)cc1`
Found: 4.17

Lookup: Please look at this molecule and report its logP: `Cc1cn([C@H]2C[C@H](O)[C@@H](CO)O2)c(=O)[nH]c1=O`
Found: -0.93

###

# key: entry, value: logP
Answer as a number with no unit attached.

Lookup: # return recorded logP for entry C=C1CCC2C(C1)c1c(OCc3ccc(-c4ccccc4)cc3)cc(CCCCC)cc1OC2(C)C (configuration not stated)
Found: 11.3

Lookup: Answer with reported logP of C=C1C(=O)OC2C1C(OC(=O)C=C(C)C)CC1=CC(CC3(C)OC23)OC1=O (configuration not stated)
Found: 1.05

Lookup: Determine its reported logP: `Cc1cccc(C)c1N(CCCN1CCCCC1)C(=O)Cc1ccccc1`
Found: 5.28

###

Measured logP, listed per entry.

// solved cases for logP follow
{"Molecule": "OC(CCN1CCCCC1)(c1ccccc1)C1CC2C=CC1C2 (stereo not drawn)", "Observed Property": "logP", "Observed Measurement": 4.25}
{"Molecule": "CC(=O)c1ccc(C(O)(Cn2ccnc2)c2ccc(-c3ccncc3)cc2)cc1 (stereo not drawn)", "Observed Property": "logP", "Observed Measurement": 2.41}
{"Molecule": "Cc1ccc(Br)cc1N=C1NCCN1", "Observed Property": "logP", "Observed Measurement": 1.94}
{"Molecule": "CC(=O)Nc1nc(N2CCN(C)CC2)c(Cl)nc1[N+](=O)[O-]", "Observed Property": "logP", "Observed Measurement": 0.5}
{"Molecule": "Clc1ccc(-c2cccc(Cl)c2)cc1", "Observed Property": "logP", "Observed Measurement": 5.15}

Lookup: Assign logP to the following record: NC1CCc2ccccc2C1 (stereo not drawn)
Found: 2.08

Lookup: Name the recorded logP of the molecule listed here: `COc1cc(OC)c(Cl)c(Cc2cnc(N)nc2N)c1Cl`
Found: 2.55

Lookup: Supply reported logP belonging to this molecule: CN(C)CCC(c1ccccc1)c1ccc(C(C)(C)C)cc1 (stereo not drawn)
Found: 5.1

Lookup: Annotate the molecule `COc1ccccc1N1CCN(CCCNc2cc(=O)n(C)c(=O)n2C)CC1` with its measured logP.
Found: 1.6

Lookup: Quote logP reported for CCC(=O)OC(C(=O)NC12CC3CC(CC(C3)C1)C2)c1ccccc1 (stereo not drawn) please.
Found: 3.72

Lookup: Tell me logP reported for `O=C(O)c1ccc(Cl)cc1Nc1ccc(Cl)cc1`
Found: 4.97

Lookup: Fill in reported logP for this entry: CCCCCCC(C)(C)c1ccc(C2CCCC(O)C2)c(O)c1 (stereo not drawn)
Found: 6.68

Lookup: Please supply the value of reported logP for the item `c1ccc(-c2cnc3ccccc3n2)cc1`
Found: 3.48
